SYSTEM UNDER TEST: phosphorylated active hERK2 enzyme (Homo sapiens (Human), UniProt P28482)
Sequence (P28482 whole entry): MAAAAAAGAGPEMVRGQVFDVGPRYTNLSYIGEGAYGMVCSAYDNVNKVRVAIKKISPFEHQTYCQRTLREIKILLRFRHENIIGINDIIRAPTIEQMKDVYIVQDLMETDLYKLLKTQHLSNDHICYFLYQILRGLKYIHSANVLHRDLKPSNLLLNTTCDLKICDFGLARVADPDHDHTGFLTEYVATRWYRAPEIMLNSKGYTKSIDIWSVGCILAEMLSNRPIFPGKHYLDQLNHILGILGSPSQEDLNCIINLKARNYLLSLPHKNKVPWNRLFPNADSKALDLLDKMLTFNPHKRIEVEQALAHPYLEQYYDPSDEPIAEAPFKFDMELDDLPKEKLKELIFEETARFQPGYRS
# note: exactly 8 nM is not below, so it is criterion not met; use criterion met for IC50 strictly under it

MOLECULE | ASSIGNED LABEL
Cc1cc(-n2ncc3cc(NC(=O)N[C@@H](c4ccccc4)C(C)(C)O)nc(CO)c32)ccn1 | criterion met

input: Please determine if CO[C@H]1CCCC[C@@H]1NC(=O)Nc1cc2cnn(-c3ccnc(C)c3)c2cn1 (racemic) is below 8 nM in terms of IC50.
output: criterion not met

input: Please determine if C[C@@H](NC(=O)Nc1cc2cnn(CC3CCCC3)c2c(CO)n1)c1ccccc1 is below 8 nM in terms of IC50.
output: criterion not met

input: Please determine if Cc1cc(-n2ncc3cc(NC(=O)N[C@H]4CN(C)C[C@@H]4c4cccc(F)c4)ncc32)ccn1 is below 8 nM in terms of IC50.
output: criterion met

input: Please determine if Cc1cc(-n2ncc3cc(NC(=O)N[C@H]4CCC[C@@H]4c4ccccc4)ncc32)ccn1 (racemic) is below 8 nM in terms of IC50.
output: criterion met

input: Please determine if Cc1cc(-n2ncc3cc(NC(=O)N[C@H]4CCC[C@@H]4Oc4ccc(F)cc4)ncc32)ccn1 (racemic) is below 8 nM in terms of IC50.
output: criterion not met

====

SYSTEM UNDER TEST: phosphorylated active hERK2 enzyme (Homo sapiens (Human), UniProt P28482)
CONDITION LABEL: read-out: ERK2 IC50; IMAP-FP assay; 0.5 nM hERK2, 30 μM ATP; 10 point titration, 3 μM starting concentration
Reported IC50 values are given for each entry in this list.
Record the value in nM, omitting the unit from your answer.

QUERY SMILES | SYSTEM UNDER TEST | OUTCOME MEASURE | UNITS SYMBOL | MEASUREMENT
C[C@@H](NC(=O)Nc1cc2cnn(CC3CCC3)c2c(CO)n1)c1ccccc1 | phosphorylated active hERK2 enzyme (Homo sapiens (Human), UniProt P28482) | IC50 | nM | 230
C[C@@H](NC(=O)Nc1cc2cnn(C)c2c(CO)n1)c1ccccc1 | phosphorylated active hERK2 enzyme (Homo sapiens (Human), UniProt P28482) | IC50 | nM | 60.4
Cc1cc(-n2ncc3cc(NC(=O)N[C@@H](CN)c4ccccc4)ncc32)ccn1 | phosphorylated active hERK2 enzyme (Homo sapiens (Human), UniProt P28482) | IC50 | nM | 42.5

input: Given the entry Cc1cc(-n2ncc3cc(NC(=O)N[C@H]4CN(C)C[C@@H]4C4CCCCC4)ncc32)ccn1 , report its measured IC50.
output: 35.1

====

Reported log10(IC50) values are given for each entry in this list.
SYSTEM UNDER TEST: phosphorylated active hERK2 enzyme (Homo sapiens (Human))
CONDITION LABEL: read-out: ERK2 IC50; IMAP-FP assay; 0.5 nM hERK2, 30 μM ATP; 10 point titration, 3 μM starting concentration
Parameter value (number): base-10 log of IC50 in nM.

// below: answered compounds
COMPOUND | OUTCOME MEASURE | MEASUREMENT
COCCOC[C@@H](NC(=O)Nc1cc2cnn(-c3ccnc(C)c3)c2cn1)c1ccccc1 [Example 136] | log10(IC50) | 0.64
C[C@@H](NC(=O)Nc1cc2cnn(CCC#N)c2c(CO)n1)c1ccccc1 [Example 323] | log10(IC50) | 2.04
C[C@@H](O)[C@@H](NC(=O)Nc1cc2cn[nH]c2cn1)c1ccccc1 [Example 227] | log10(IC50) | 2.13
Cc1cc(-n2ncc3cc(NC(=O)N[C@H]4CN(C)C[C@@H]4Oc4ccc(F)cc4)ncc32)ccn1 [Example 285] | log10(IC50) | 1.21
Cc1cc(-n2ncc3cc(NC(=O)NC(CCN4CCCCC4)c4ccccc4)ncc32)ccn1 (centres unmarked) [Example 53] | log10(IC50) | 1.69
C[C@@H](NC(=O)Nc1cc2cnn(CC3CCOC3)c2c(CO)n1)c1ccccc1 (some centres unmarked) [Example 311] | log10(IC50) | 2.20
Cc1cc(-n2ncc3cc(NC(=O)N[C@H]4CN(C)C[C@@H]4c4ccc(-c5ccccc5)s4)ncc32)ccn1 [Example 155] | log10(IC50) | 2.77

Please examine the following record next.
input: Given the entry Cc1cc(-n2ncc3cc(NC(=O)NC(CCN(C)C)c4ccccn4)ncc32)ccn1 (centres unmarked) [Example 72] , report its measured log10(IC50).
output: 1.01
